What Kd was measured for each of the following?
- ASSAY TARGET: DAPK1 (Homo sapiens, UniProt P53355)
- Sequence (P53355 whole entry): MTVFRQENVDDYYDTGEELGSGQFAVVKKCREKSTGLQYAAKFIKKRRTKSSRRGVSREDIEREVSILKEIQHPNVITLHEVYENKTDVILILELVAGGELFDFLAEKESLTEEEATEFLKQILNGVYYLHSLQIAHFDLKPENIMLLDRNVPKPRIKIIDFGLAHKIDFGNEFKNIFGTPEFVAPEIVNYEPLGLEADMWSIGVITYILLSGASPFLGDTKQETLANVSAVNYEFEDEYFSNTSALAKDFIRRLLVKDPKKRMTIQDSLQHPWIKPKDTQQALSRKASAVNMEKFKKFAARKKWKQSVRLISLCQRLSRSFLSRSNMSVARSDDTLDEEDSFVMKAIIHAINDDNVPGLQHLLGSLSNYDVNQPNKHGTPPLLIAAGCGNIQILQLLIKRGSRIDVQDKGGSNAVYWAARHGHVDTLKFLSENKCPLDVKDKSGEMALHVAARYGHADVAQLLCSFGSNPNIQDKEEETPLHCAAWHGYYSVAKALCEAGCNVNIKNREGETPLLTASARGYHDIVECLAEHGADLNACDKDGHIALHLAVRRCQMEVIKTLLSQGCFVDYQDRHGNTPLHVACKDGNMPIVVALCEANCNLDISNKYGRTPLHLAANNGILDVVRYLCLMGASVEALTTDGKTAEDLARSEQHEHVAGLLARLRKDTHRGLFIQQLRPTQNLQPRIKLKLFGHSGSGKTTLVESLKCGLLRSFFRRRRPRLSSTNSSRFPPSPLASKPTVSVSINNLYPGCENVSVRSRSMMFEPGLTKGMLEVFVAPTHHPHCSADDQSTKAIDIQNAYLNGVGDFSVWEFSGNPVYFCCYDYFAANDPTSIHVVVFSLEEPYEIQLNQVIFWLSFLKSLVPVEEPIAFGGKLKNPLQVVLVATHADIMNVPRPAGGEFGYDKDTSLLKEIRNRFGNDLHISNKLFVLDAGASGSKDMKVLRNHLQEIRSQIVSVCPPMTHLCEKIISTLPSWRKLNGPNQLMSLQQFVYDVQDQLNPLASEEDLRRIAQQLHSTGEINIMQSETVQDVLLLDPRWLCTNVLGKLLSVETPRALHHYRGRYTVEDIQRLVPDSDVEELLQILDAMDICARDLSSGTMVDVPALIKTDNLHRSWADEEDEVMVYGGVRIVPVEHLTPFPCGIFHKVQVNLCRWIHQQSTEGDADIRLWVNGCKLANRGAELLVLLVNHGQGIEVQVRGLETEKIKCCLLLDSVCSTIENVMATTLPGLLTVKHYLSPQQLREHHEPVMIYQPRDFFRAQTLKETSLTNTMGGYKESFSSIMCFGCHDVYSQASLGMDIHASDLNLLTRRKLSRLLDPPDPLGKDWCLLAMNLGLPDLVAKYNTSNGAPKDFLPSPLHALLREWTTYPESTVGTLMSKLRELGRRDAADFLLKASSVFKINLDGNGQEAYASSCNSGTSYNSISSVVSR
Give the value in µM but do not write µM after it.

Q: # input molecule: O=C1Nc2c(cc([N+](=O)[O-])c3c2CCCC3)C1=NO [Compound 5d] ; wanted: its Kd
Result: 0.29

Q: O=C1Nc2c(ccc3c2CCCC3)C1=NO [Compound 5a] , same question.
Result: 13.5

====

- ASSAY TARGET: UniProt:Q9Y463
- Sequence (Q9Y463 whole entry): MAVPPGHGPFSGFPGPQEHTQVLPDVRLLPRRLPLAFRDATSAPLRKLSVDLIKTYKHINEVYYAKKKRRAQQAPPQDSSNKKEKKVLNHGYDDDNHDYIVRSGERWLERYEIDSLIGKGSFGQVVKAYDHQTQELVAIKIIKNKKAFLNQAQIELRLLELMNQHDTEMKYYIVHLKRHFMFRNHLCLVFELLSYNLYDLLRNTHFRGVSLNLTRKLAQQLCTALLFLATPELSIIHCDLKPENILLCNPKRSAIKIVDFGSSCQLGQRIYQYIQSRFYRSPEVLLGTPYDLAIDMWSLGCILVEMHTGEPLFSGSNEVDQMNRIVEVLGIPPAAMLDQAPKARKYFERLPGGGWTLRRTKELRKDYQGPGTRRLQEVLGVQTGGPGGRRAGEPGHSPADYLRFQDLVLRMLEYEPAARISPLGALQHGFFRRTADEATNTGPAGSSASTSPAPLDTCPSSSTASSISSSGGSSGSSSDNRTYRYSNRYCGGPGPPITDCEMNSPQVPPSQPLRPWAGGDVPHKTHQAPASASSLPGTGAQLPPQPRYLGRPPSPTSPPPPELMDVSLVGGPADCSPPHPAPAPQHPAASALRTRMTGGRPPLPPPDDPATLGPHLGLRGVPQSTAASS
REPORTED ENDPOINT: pKd
Bear in mind: pKd is minus log10 of a mol/L concentration; give just that figure.

Q: # input compound: `O=C1Nc2c(cc([N+](=O)[O-])c3c2CCCC3)C1=NO` ; wanted: its pKd
Result: 6.33

====

- ASSAY TARGET: DAPK3 (Homo sapiens, UniProt O43293)
- Sequence (O43293 whole entry): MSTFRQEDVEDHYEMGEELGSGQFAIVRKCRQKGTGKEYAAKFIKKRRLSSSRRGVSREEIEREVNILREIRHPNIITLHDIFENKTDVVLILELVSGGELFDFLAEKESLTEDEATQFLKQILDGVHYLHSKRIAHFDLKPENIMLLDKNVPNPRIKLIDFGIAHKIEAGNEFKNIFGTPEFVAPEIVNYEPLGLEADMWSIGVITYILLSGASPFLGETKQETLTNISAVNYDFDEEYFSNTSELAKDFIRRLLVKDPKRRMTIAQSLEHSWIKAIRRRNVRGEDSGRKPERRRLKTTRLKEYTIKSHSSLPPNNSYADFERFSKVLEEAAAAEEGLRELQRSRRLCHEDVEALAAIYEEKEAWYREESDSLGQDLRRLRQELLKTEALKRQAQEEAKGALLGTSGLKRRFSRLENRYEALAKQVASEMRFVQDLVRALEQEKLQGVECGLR
REPORTED ENDPOINT: Kd
// return the numeric value with its unit appended

Q: # input molecule: `O=C1Nc2c(cc([N+](=O)[O-])c3c2CCCC3)C1=NO` ; wanted: its Kd
Result: 590 nM

====

- Test system: proinflammatory cytokine production
- PROCEDURE DETAILS: Multiplex human cytokine ELISA, LPS-stimulated MonoMac-6 cells
- Type: cell-based
- STUDY CONDITIONS: 10 μM compound, 24 h, versus DMSO-treated control
REPORTED ENDPOINT: inhibition of secretion of IL-1α, IL-1β, IL-6, TNF and MCP-1

LINE NOTATION | RESULT
CON=C1C(=O)Nc2c1ccc1c2CCCC1 | ineffective
CON=C1C(=O)Nc2c1cc([N+](=O)[O-])c1c2CCCC1 | ineffective

====

- PROCEDURE DETAILS: Cytotoxicity, CellTiter-Glo
- Assay type: cell-based, human
- STUDY CONDITIONS: human, THP-1Blue cells; 24 h incubation; N.T.: no cytotoxicity at concentrations up to 50 µM
REPORTED ENDPOINT: IC50 at 24 h (µM)
Give the value in µM but do not write µM after it.

Q: # input molecule: CCN1CCc2c(-c3ccccc3)cc3c(c2C1)NC(=O)C3=NO [NS-383, reference compound] ; wanted: its IC50 at 24 h
Result: 19.2

====

- PROCEDURE DETAILS: Cytotoxicity, CellTiter-Glo
- Type: cell-based, human
- STUDY CONDITIONS: human, MonoMac-6 cells; 24 h incubation; N.T.: no cytotoxicity at concentrations up to 50 µM
REPORTED ENDPOINT: IC50 at 24 h (µM)
Give the value in µM but do not write µM after it.

Q: # input compound: CCN1CCc2c(-c3ccccc3)cc3c(c2C1)NC(=O)C3=NO [NS-383, reference compound] ; wanted: its IC50 at 24 h
Result: 21.2

====

- ASSAY TARGET: HIPK2 (Homo sapiens)
- Sequence (Q9H2X6 whole entry): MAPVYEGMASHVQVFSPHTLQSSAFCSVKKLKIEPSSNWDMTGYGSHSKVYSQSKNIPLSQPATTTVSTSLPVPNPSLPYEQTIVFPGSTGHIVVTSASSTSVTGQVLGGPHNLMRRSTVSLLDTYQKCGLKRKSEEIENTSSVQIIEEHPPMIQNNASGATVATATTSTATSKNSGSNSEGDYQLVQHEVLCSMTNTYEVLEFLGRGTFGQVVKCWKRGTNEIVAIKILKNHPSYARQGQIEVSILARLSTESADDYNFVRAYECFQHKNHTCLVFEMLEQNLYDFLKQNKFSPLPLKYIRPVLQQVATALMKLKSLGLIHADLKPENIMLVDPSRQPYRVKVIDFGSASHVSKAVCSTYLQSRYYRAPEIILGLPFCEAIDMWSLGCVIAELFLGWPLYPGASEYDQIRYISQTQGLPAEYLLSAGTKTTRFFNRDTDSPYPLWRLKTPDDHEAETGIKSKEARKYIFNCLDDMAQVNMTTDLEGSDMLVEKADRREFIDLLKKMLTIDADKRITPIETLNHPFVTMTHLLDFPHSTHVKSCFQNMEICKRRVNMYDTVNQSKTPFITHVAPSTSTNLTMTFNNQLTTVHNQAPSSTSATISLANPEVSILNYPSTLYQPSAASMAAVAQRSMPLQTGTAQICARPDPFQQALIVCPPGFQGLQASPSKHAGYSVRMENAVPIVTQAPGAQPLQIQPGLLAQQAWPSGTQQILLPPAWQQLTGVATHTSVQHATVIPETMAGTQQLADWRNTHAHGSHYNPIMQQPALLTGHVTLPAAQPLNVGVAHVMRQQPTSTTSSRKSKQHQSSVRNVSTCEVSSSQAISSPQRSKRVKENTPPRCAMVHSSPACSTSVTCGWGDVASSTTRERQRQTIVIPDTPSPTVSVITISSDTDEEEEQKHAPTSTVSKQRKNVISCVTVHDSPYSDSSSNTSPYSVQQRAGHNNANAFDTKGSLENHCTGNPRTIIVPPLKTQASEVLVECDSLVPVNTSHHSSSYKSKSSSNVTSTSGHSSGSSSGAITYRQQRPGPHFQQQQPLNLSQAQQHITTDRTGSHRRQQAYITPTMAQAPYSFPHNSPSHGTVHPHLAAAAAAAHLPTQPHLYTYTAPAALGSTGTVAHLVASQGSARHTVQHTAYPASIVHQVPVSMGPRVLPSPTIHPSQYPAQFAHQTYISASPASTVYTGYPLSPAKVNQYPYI
What Kd was measured for each of the following?
Give the value in µM but do not write µM after it.

Q: # input compound: `O=C1Nc2c(cc([N+](=O)[O-])c3c2CCCC3)C1=NO` ; wanted: its Kd
Result: 0.295

Q: `O=C1Nc2c(ccc3c2CCCC3)C1=NO` , same question.
Result: 0.73
